Target: T1, TRBP-dsRBD2 (UniProt Q15633-2 139-215)
T1 sequence: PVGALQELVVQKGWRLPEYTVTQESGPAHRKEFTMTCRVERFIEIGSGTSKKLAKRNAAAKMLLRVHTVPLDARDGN
Experiment: EMSA; apparent Kd; nH 2.4; 50 mM sodium cacodylate pH 7.0, 50 mM potassium glutamate, 5% glycerol; EMSA 0.5 pM RNA, 30 min at room temperature, gel 0.25X TBE at 10 C; CD at 10 C with 5-15 uM RNA
Conditions: protein: recombinant; label: 5'-32P; hairpin, 16 bp stem, UUCG loop
MEASUREMENT_TYPE: Kd

# input Tell me measured Kd for GUCAGCAGUGCCUUAGUUCGCUAAGGCACUGCUGAC (structured_RNA) [ds16-tetra-stable] please.
# output 5 µM
